- assay target: T1, full-length recombinant human PAD4 (human, UniProt Q9UM07 1-663)
- T1 construct: also called peptidylarginine deiminase 4
- T1 sequence (Q9UM07 whole entry): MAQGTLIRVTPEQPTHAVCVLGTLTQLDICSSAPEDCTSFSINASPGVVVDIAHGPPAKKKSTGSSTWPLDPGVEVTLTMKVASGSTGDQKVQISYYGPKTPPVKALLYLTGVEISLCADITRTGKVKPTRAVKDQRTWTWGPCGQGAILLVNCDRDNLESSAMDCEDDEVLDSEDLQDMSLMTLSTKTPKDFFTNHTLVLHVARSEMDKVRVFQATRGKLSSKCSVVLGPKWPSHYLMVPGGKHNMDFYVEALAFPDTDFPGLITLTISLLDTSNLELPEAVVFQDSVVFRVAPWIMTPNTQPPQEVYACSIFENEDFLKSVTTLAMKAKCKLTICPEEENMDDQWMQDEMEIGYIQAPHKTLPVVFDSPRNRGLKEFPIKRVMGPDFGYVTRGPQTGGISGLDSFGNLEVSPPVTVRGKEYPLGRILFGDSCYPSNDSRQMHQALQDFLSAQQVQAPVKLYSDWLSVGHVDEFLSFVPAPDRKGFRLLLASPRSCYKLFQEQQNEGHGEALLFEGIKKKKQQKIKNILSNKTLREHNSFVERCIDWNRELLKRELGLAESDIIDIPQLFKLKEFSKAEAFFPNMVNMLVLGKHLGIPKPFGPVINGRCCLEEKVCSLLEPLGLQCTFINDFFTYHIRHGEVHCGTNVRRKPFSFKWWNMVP
- assay name: ELISA, human PAD4 on plate, antibody 1 ug/mL
measurement label: absorbance 490 nm/630 nm (OD)
Give a bare numeral; the unit OD is implied.

Recorded absorbance 490 nm/630 nm of G8 (antibody, IgG1, V domains shown, Chicken variable regions in mouse chimeric antibody (IgG1) expression vectors; also called anti-PAD4 antibody G8; A11 etc) VH: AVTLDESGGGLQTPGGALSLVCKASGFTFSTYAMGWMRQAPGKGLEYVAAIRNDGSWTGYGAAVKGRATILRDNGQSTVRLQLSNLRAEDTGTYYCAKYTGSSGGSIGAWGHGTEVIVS VL: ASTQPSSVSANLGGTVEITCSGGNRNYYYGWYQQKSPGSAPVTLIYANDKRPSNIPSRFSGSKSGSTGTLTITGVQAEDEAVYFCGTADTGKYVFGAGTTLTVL , please.
2.12

Consider the additional binder presented here.
Recorded absorbance 490 nm/630 nm of G9 (antibody, IgG1, V domains shown, Chicken variable regions in mouse chimeric antibody (IgG1) expression vectors; also called anti-PAD4 antibody G9; A11 etc) VH: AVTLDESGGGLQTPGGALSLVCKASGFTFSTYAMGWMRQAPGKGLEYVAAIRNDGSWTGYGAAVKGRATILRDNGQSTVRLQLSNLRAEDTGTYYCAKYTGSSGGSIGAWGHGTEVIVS VL: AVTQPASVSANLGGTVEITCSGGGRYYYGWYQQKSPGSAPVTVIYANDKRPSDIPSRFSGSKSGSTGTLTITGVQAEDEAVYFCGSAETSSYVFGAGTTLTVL , please.
2.1
